# tested-on: UniProt P42338
# Sequence (P42338 whole entry): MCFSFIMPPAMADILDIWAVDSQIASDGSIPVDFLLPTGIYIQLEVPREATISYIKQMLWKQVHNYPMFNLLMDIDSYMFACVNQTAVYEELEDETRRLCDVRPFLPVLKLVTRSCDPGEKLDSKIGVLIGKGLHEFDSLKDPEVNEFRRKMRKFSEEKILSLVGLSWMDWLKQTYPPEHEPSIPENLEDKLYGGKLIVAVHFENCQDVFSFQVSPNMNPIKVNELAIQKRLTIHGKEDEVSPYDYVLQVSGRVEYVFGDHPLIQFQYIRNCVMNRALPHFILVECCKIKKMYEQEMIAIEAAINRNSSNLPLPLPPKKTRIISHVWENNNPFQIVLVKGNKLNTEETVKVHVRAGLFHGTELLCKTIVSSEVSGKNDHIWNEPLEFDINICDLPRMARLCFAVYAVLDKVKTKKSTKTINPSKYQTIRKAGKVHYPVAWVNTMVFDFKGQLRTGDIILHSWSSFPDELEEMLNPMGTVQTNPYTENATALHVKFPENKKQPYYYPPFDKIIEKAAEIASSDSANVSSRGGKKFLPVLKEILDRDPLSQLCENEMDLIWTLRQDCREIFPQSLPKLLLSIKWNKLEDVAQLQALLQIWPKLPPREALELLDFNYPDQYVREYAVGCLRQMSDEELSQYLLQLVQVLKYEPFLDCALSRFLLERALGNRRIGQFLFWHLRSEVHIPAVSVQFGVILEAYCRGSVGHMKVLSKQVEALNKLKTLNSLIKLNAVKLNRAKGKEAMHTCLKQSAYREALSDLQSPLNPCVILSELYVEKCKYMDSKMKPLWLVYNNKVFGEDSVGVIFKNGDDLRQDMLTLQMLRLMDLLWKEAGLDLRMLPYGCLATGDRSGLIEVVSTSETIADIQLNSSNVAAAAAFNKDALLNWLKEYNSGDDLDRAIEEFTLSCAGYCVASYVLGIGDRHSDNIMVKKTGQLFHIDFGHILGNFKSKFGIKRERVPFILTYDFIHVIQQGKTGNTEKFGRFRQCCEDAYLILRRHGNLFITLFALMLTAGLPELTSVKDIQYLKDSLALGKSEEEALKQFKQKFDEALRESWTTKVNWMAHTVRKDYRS
# Sequence (P27986 whole entry partner): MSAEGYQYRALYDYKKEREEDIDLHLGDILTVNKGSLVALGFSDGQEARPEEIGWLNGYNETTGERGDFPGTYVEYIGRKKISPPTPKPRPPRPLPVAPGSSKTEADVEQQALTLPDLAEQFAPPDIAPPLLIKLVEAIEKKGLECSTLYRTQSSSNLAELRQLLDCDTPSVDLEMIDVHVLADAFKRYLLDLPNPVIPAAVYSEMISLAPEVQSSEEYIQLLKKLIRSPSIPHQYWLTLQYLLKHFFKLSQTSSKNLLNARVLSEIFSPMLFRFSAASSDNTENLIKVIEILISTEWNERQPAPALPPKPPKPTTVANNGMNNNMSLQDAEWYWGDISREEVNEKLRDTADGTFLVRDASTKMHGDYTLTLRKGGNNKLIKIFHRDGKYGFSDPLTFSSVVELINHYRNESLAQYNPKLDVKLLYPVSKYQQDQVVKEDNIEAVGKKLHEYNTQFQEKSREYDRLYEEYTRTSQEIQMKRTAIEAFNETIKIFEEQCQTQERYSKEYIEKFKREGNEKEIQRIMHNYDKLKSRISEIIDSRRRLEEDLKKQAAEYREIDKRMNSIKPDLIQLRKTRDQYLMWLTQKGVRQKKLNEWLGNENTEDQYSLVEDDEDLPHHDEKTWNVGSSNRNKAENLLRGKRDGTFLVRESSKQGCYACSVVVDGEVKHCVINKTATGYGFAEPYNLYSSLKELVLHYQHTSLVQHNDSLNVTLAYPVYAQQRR
Below is a list of entries, each paired with its recorded IC50 value.

Nc1nc2cc(-c3nn(C4CCC(N5CCOCC5)CC4)c4ncnc(N)c34)ccc2o1 (stereo not drawn) [compound 6]: > 10 µM
Nc1nc2cc(-c3cn(C4CCOCC4)c4ncnc(N)c34)ccc2o1 [compound 9]: > 10 µM
CC(CO)n1nc(-c2ccc3oc(N)nc3c2)c2c(N)ncnc21 (stereo not drawn) [compound 23]: > 10 µM

Prompt: Checklist item: IC50 tested on UniProt P42338, entry Nc1nc2cc(-c3nn(C4CCOCC4)c4ncnc(N)c34)ccc2o1 [compound 5] , value?
Response: < 10 µM

Prompt: Checklist item: IC50 tested on UniProt P42338, entry CC(C)(CO)n1nc(-c2ccc3oc(N)nc3c2)c2c(N)ncnc21 [compound 27] , value?
Response: > 10 µM

Prompt: Checklist item: IC50 tested on UniProt P42338, entry COC(=O)Nc1noc2cc(-c3nn(C(C)C)c4ncnc(N)c34)ccc12 [compound 20] , value?
Response: > 10 µM

Prompt: Checklist item: IC50 tested on UniProt P42338, entry CC(=O)N1CCC(n2nc(-c3ccc4oc(N)nc4c3)c3c(N)ncnc32)CC1 [compound 7] , value?
Response: < 10 µM

Prompt: Checklist item: IC50 tested on UniProt P42338, entry Cc1nc(N)c2c(-c3ccc4oc(N)nc4c3)nn(C(C)C)c2n1 [compound 21] , value?
Response: > 10 µM

Prompt: Checklist item: IC50 tested on UniProt P42338, entry CC(=O)Nc1nc2cc(-c3nn(C(C)C)c4ncnc(N)c34)ccc2o1 [compound 2] , value?
Response: > 10 µM

---

# tested-on: PI3K δ (Homo sapiens)
# Construct: purchased Upstate
# Sequence (O00329 whole entry, one chain of several): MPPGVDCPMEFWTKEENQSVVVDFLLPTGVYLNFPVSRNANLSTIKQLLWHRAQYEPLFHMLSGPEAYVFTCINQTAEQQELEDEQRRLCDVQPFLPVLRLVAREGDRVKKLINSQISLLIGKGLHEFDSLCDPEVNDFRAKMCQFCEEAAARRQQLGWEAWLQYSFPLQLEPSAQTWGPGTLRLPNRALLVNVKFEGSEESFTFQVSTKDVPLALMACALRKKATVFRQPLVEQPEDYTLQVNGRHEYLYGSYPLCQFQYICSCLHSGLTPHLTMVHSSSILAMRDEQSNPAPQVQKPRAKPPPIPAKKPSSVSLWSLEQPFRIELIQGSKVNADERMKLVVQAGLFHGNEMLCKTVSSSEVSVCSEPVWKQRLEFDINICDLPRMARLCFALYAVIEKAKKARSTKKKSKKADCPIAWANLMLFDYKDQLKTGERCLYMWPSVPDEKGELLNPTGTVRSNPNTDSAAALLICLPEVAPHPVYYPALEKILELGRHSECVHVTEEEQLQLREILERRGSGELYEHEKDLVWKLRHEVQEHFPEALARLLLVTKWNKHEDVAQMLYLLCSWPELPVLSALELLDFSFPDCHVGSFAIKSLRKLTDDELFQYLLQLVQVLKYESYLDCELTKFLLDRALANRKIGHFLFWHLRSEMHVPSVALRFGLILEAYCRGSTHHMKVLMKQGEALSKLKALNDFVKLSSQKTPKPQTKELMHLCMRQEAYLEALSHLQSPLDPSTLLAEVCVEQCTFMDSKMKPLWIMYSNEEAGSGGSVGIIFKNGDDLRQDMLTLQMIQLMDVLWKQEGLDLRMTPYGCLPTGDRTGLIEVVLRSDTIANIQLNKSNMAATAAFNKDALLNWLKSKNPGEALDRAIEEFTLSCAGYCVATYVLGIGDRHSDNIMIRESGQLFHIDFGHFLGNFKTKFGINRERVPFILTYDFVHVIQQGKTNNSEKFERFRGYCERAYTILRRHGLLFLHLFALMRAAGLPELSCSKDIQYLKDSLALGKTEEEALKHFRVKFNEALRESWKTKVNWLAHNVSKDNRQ
# measurement-protocol: PI3K kinase inhibition assay (p110δ/p85α)
# Assay type: biochemical
Below is a list of entries, each paired with its recorded IC50 value.

In the examples that follow, each entry is paired with its recorded IC50.
CC(C)(CO)n1nc(-c2ccc3oc(N)nc3c2)c2c(N)ncnc21: < 1 µM
Cc1nc(N)c2c(-c3ccc4oc(N)nc4c3)nn(C(C)C)c2n1: > 10 µM
Nc1nc2cc(-c3nn(C4CC(=O)C4)c4ncnc(N)c34)ccc2o1: < 1 µM
CC(C)n1nc(-c2ccc3c(NC4CC4)noc3c2)c2c(N)ncnc21: < 10 µM
CC(=O)N1CCC(n2nc(-c3ccc4oc(N)nc4c3)c3c(N)ncnc32)CC1: < 1 µM

Prompt: # get_value(readout='IC50', item= "Nc1nc2cc(-c3nn(C4CCOCC4)c4ncnc(N)c34)ccc2o1" )
Response: < 1 µM

Prompt: # get_value(readout='IC50', item= "CC(C)n1nc(-c2ccc3nc(N)oc3c2)c2c(N)ncnc21" )
Response: < 1 µM

---

# tested-on: mTOR (Homo sapiens, UniProt P42345)
# Construct: purchased Invitrogen
# measurement-protocol: mTOR kinase inhibition assay
# Type: biochemical
readout-label: IC50

In the examples that follow, each entry is paired with its recorded IC50.
CC(C)n1nc(-c2ccc3nc(N)oc3c2)c2c(N)ncnc21 [compound 4]: < 1000 nM
CC(CO)n1nc(-c2ccc3oc(N)nc3c2)c2c(N)ncnc21 (stereo not drawn) [compound 23]: < 100 nM
CC(C)n1nc(-c2ccc3c(N)noc3c2)c2c(N)ncnc21 [compound 12]: < 1000 nM
COC(=O)Nc1noc2cc(-c3nn(C(C)C)c4ncnc(N)c34)ccc12 [compound 20]: < 10000 nM
Cc1nc(N)c2c(-c3ccc4oc(N)nc4c3)nn(C(C)C)c2n1 [compound 21]: < 1000 nM
Nc1nc2cc(-c3nn(C4CCOCC4)c4ncnc(N)c34)ccc2o1 [compound 5]: < 100 nM
COC(=O)Nc1noc2ccc(-c3nn(C(C)C)c4ncnc(N)c34)cc12 [compound 19]: < 10000 nM
CC(C)n1cc(-c2ccc3oc(N)nc3c2)c2c(N)ncnc21 [compound 8]: < 100 nM

Prompt: # get_value(readout='IC50', item= Nc1noc2ccc(-c3nn(CC(=O)N4CCOCC4)c4ncnc(N)c34)cc12 [compound 17] )
Response: > 10000 nM

Prompt: # get_value(readout='IC50', item= CNc1noc2cc(-c3nn(C(C)C)c4ncnc(N)c34)ccc12 [compound 13] )
Response: < 10000 nM

Prompt: # get_value(readout='IC50', item= CC(=O)Nc1noc2cc(-c3nn(C(C)C)c4ncnc(N)c34)ccc12 [compound 11] )
Response: < 1000 nM

Prompt: # get_value(readout='IC50', item= CC(C)n1nc(-c2ccc3onc(N)c3c2)c2c(N)ncnc21 [compound 10] )
Response: < 10000 nM

Prompt: # get_value(readout='IC50', item= CC(C)n1nc(-c2ccc3c(NC4CC4)noc3c2)c2c(N)ncnc21 [compound 14] )
Response: < 10000 nM

Prompt: # get_value(readout='IC50', item= CC(=O)Nc1nc2cc(-c3nn(C(C)C)c4ncnc(N)c34)ccc2o1 [compound 2] )
Response: < 100 nM

Prompt: # get_value(readout='IC50', item= CC(C)n1nc(-c2ccc3onc(NC4CC4)c3c2)c2c(N)ncnc21 [compound 16] )
Response: > 10000 nM

---

The molecules below have reported pIC50 for PI3K α (Homo sapiens, UniProt P42336).
pIC50: −log10 of the molar value.

In the examples that follow, each entry is paired with its recorded pIC50.
CC(C)(CO)n1nc(-c2ccc3oc(N)nc3c2)c2c(N)ncnc21: > 5.00
Nc1nc2cc(-c3nn(C4CCOCC4)c4ncnc(N)c34)ccc2o1: > 6.00

Prompt: Checklist item: pIC50 tested on PI3K α (Homo sapiens, UniProt P42336), entry "CC(C)n1nc(-c2ccc3onc(NC4CC4)c3c2)c2c(N)ncnc21" , value?
Response: < 5.00

Prompt: Checklist item: pIC50 tested on PI3K α (Homo sapiens, UniProt P42336), entry "CC(=O)Nc1nc2ccc(-c3nn(C(C)C)c4ncnc(N)c34)cc2o1" , value?
Response: < 5.00

Prompt: Checklist item: pIC50 tested on PI3K α (Homo sapiens, UniProt P42336), entry "Nc1noc2ccc(-c3nn(CC(=O)N4CCOCC4)c4ncnc(N)c34)cc12" , value?
Response: < 5.00

---

# tested-on: PI3K α (Homo sapiens)
# Sequence (P42336 whole entry, one chain of several): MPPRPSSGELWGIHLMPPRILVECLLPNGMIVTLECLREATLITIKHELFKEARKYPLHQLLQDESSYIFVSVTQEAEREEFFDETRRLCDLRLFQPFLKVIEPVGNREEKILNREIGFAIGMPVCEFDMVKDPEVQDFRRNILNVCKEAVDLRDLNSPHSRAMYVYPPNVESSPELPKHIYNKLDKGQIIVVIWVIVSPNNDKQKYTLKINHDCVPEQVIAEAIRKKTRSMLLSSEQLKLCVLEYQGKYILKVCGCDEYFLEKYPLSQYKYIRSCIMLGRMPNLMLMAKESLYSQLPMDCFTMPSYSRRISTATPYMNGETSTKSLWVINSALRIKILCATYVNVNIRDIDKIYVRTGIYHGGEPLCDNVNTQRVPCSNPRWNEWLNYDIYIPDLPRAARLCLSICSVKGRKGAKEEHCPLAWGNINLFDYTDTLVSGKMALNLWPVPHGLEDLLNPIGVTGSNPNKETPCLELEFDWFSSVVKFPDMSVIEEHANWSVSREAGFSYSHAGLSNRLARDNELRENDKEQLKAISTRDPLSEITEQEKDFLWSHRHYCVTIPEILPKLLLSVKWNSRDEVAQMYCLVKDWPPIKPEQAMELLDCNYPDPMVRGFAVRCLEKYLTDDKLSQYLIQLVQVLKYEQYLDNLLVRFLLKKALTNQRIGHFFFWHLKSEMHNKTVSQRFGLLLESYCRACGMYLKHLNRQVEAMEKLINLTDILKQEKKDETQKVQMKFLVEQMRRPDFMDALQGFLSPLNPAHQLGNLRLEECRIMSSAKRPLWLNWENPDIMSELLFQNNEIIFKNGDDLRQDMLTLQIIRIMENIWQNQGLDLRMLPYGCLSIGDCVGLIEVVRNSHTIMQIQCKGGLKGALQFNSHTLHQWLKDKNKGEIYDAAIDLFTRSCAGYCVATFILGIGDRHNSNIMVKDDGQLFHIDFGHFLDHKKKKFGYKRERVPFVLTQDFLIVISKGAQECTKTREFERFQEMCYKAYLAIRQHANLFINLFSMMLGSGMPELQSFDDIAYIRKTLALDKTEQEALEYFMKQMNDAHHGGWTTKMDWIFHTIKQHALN
readout-label: IC50

In the examples that follow, each entry is paired with its recorded IC50.
CC(C)n1cc(-c2ccc3oc(N)nc3c2)c2c(N)ncnc21: < 1 µM
Nc1nc2cc(-c3nn(C4CC(=O)C4)c4ncnc(N)c34)ccc2o1: < 1 µM
Cc1nc(N)c2c(-c3ccc4oc(N)nc4c3)nn(C(C)C)c2n1: > 10 µM
Nc1nc2cc(-c3cn(C4CCOCC4)c4ncnc(N)c34)ccc2o1: < 10 µM

# next molecule below
Prompt: Checklist item: IC50 tested on PI3K α (Homo sapiens), entry "CC(C)n1nc(-c2ccc3c(NC4CC4)noc3c2)c2c(N)ncnc21" , value?
Response: < 10 µM

---

pIC50: −log10 of the molar value.
The compounds below have reported pIC50 for PI3K γ (Homo sapiens).

In the examples that follow, each entry is paired with its recorded pIC50.
CC(=O)Nc1nc2cc(-c3nn(C(C)C)c4ncnc(N)c34)ccc2o1: > 6.00
CC(C)n1nc(-c2ccc3nc(N)oc3c2)c2c(N)ncnc21: > 6.00
CC(CO)n1nc(-c2ccc3oc(N)nc3c2)c2c(N)ncnc21 (centres unmarked): > 5.00
Nc1nc2cc(-c3nn(C4CC(=O)C4)c4ncnc(N)c34)ccc2o1: > 7.00
CC(C)n1cc(-c2ccc3oc(N)nc3c2)c2c(N)ncnc21: > 6.00
Nc1nc2cc(-c3nn(C4CCOCC4)c4ncnc(N)c34)ccc2o1: > 7.00
CNc1noc2cc(-c3nn(C(C)C)c4ncnc(N)c34)ccc12: > 6.00
Cc1nc(N)c2c(-c3ccc4oc(N)nc4c3)nn(C(C)C)c2n1: < 5.00

Prompt: Checklist item: pIC50 tested on PI3K γ (Homo sapiens), entry "CC(C)(CO)n1nc(-c2ccc3oc(N)nc3c2)c2c(N)ncnc21" , value?
Response: < 5.00

Prompt: Checklist item: pIC50 tested on PI3K γ (Homo sapiens), entry "CC(=O)N1CCC(n2nc(-c3ccc4oc(N)nc4c3)c3c(N)ncnc32)CC1" , value?
Response: > 5.00

Prompt: Checklist item: pIC50 tested on PI3K γ (Homo sapiens), entry "Nc1noc2ccc(-c3nn(CC(=O)N4CCOCC4)c4ncnc(N)c34)cc12" , value?
Response: < 5.00

---

pIC50: −log10 of the molar value.
The molecules below have reported pIC50 for UniProt:P42336.

In the examples that follow, each entry is paired with its recorded pIC50.
CC(=O)Nc1nc2cc(-c3nn(C(C)C)c4ncnc(N)c34)ccc2o1: > 5.00
Nc1nc2cc(-c3nn(C4CC(O)C4)c4ncnc(N)c34)ccc2o1 (stereo not drawn): > 7.00
CNc1noc2cc(-c3nn(C(C)C)c4ncnc(N)c34)ccc12: > 5.00
CC(C)n1nc(-c2ccc3nc(N)oc3c2)c2c(N)ncnc21: > 5.00

Prompt: # get_value(readout='pIC50', item= "CC(=O)N1CCC(n2nc(-c3ccc4oc(N)nc4c3)c3c(N)ncnc32)CC1" )
Response: > 6.00

Prompt: # get_value(readout='pIC50', item= CC(CO)n1nc(-c2ccc3oc(N)nc3c2)c2c(N)ncnc21 (stereo not drawn) )
Response: > 5.00
